ASSAYED TARGET: Dickkopf-related protein 1 (Homo sapiens) (UniProt O94907)
Sequence (O94907 whole entry, looked up): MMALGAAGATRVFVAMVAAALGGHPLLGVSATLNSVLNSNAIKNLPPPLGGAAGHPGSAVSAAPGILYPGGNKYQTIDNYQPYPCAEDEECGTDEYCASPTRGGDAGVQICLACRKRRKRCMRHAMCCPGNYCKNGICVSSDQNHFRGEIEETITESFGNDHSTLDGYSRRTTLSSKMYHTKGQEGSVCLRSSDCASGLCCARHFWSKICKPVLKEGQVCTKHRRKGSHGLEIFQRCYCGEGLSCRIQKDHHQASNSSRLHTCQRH
MEASUREMENT PROTOCOL: DKK1 binders on small-molecule microarrays, primary screen, biochemical, small-molecule microarray, 635 nm fluorescence scan (AID 1106);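 also: score merges emission near 667 nm with signal to noise over three replicate slides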
ASSAY SETUP: DKK1 binding, higher = more signal
ATTRIBUTE MEASURED: composite z-score

INSERT INTO results (compound, attribute_measured, result) VALUES
  ('[N-]=[N+]=NCc1ccccc1C[C@@]1(C(N)=O)N=C(c2ccc(OCCCO)cc2)O[C@@H]1c1ccccc1CN=[N+]=[N-]', 'composite z-score', 0.0137),
  ('CC(C)C(O)C1C=CC2C(=O)N(C)C(=O)C2N1N(c1ccccc1)c1ccccc1 (stereo not drawn)', 'composite z-score', -1.07),
  ('CN1C2C=C(CCCO)C(C3C(=O)N(C(N)=O)C(=O)C32)C1c1cccs1 (stereo not drawn)', 'composite z-score', 1.45),
  ('Cc1ccc(C(C)CC(O)C2C=CC3C(=O)N(c4ccccc4)C(=O)C3N2Nc2ccc(C(C)C)cc2)o1 (stereo not drawn)', 'composite z-score', -0.252),
  ('CN(C)CCCCNC(=O)[C@H]1C[C@H]2C(=O)N3CCC[C@H]3C(=O)N2[C@H]1c1ccc(O)cc1', 'composite z-score', -0.414),
  ('C=C(CCCC)/C(=C/C[C@@H](OC(=O)c1ccncc1)c1cccc(OCCO)c1)c1cnc2ccccc2c1', 'composite z-score', 0.895),
  ('O=C1C[C@]2(c3ccc([N+](=O)[O-])cc3)C(=O)N(Cc3ccccc3)c3cc(CO)ccc3[C@H]2N1CC12CC3CC(CC(C3)C1)C2', 'composite z-score', -0.852),
  ('[N-]=[N+]=Nc1ccccc1[C@@H]1OC(c2ccc(OCCCO)cc2)=N[C@]1(CCS(=O)(=O)c1ccccc1)C(=O)NCCN1CCOCC1', 'composite z-score', -0.0291);

---

MEASUREMENT PROTOCOL: mitochondrial membrane potential change in A549 cells, profiling panel, cell-based, JC-1 fluorescence, basal, 24 h, 100 nL (AID 1138);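 also: A549 lung adenocarcinoma cells under basal conditions with no added stimulus; test concentration not given here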
ASSAY SETUP: higher = more signal
ATTRIBUTE MEASURED: z-score

INSERT INTO results (compound, result) VALUES
  ('COc1ccc([Si](C)(C)[C@H]2[C@H](CCn3cc(CCO)nn3)O[C@@]3(C(=O)N(Cc4ccc(N5C(=O)c6cccc7cccc5c67)cc4)c4ccccc43)[C@@H]2C)cc1', -0.932),
  ('COc1ccc(C(O)C2C=CC3C(=O)N(c4ccccc4)C(=O)C3N2Nc2ccc(C#N)cc2)c2ccccc12 (centres undefined)', -0.616),
  ('CC(=O)n1cc(C(O)C2C=CC3C(=O)N(Cc4ccccc4)C(=O)C3N2n2cnnc2)c2ccccc21 (centres undefined)', -0.463),
  ('NCCCCCCNC(=O)[C@@H]1C[C@@H]2C(=O)N3CCC[C@H]3C(=O)N2[C@@H]1c1ccc(O)cc1', 0.37);

---

MEASUREMENT PROTOCOL: basal S. cerevisiae growth modulation, no modifier, primary screen, OD600, strain BY4716, 24 h, basal condition (AID 1173)
ASSAY SETUP: OD600, 24 h, higher = more signal, called active from +8 up or from −8 down
Below, each of the compounds is paired with its reported z-score value.
ATTRIBUTE MEASURED: z-score

INSERT INTO results (compound, result) VALUES
  ('[N-]=[N+]=Nc1ccccc1C[C@]1(C(=O)NCc2ccccc2)N=C(c2ccc(OCCCO)cc2)O[C@H]1c1ccccc1', 1.41),
  ('CC(C)N1CC=CC23O[C@@H]4C=CCCOC(=O)C4[C@H]2C(=O)N(CCO)[C@@H]3C1=O (stereo partly drawn)', -0.913),
  ('COC(=O)C1(Cc2ccccc2)C=C2C(=C(C(C)C)C(=O)C2C)CN1 (stereo not drawn)', 0.736),
  ('CCOC(=O)C[C@H]1[C@H](OC(=O)c2ccc(-c3ccccc3)cc2)[C@@H](NC(=O)C2CCCCC2)c2cc(OCCCO)ccc2N1C(=O)c1ccccc1', 1.44),
  ('Cc1ccc(F)cc1S(=O)(=O)N[C@@H]1CCN(Cc2ccc(OC(C)C)cc2)C1', -8.98),
  ('[N-]=[N+]=Nc1ccccc1[C@@H]1OC(c2ccc(OCCCO)cc2)=N[C@]1(CCS(=O)(=O)c1ccccc1)C(=O)NCCN1CCOCC1', -1.32),
  ('O=C1NC(=O)C2C1C=CC(C(O)c1c(F)cccc1Cl)N2Nc1ccccn1 (stereo not drawn)', 1.19),
  ('O=C(O)[C@H](Cc1ccccc1)n1cc(-c2ccccn2)nn1', -0.65);
